Reported microsomal CLint at 1 uM is given for each of the following compounds.
assay: Metabolic stability in human hepatic microsome; assay type: in vitro ADME; conditions: microsomes, pH 7.4; human hepatic microsome, NADPH(+); read-out: CL NADPH(+)
Positions of bridges follow the written chain, without caps; N, C: chain ends. Non-standard residues stand in square brackets, D forms with d. Residues, ends and D or L forms follow the SMILES beside them. *: point of attachment. NMePhe(3-Cl) = CN[C@@H](Cc1cccc(Cl)c1)C(=O)O; NMeF = CN[C@@H](Cc1ccccc1)C(=O)O; NMeL = CN[C@@H](CC(C)C)C(=O)O; NMeV = CN[C@H](C(=O)O)C(C)C; NMeA = CN[C@@H](C)C(=O)O; Piperidide = C1CCN(*)CC1; Sar = CNCC(=O)O; tBu = CC(C)(C)*
Enter your answer as a number in µL/min/mg; do not include the unit.

[
  {
    "compound": "CC(C)C[C@H]1C(=O)N(C)[C@@H](C(C)C)C(=O)N[C@@H](Cc2ccccc2)C(=O)N[C@H](C(=O)N2CCCCC2)CC(=O)N[C@H](C(C)C)C(=O)N[C@@H](COC(C)(C)C)C(=O)N(C)[C@@H](CC(C)C)C(=O)N[C@@H]([C@@H](C)O)C(=O)N(C)[C@@H](Cc2ccccc2)C(=O)NCC(=O)N1C [DP-171] ([dV]S(tBu)[NMeL]T[NMeF]G[NMeL][NMeV]FD-Piperidide; lactam N-10)",
    "microsomal CLint at 1 uM (µL/min/mg)": 191
  }
]

# context switch: different compound, same microsomal CLint at 1 uM
Entry CC[C@H](C)[C@H](NC(=O)[C@@H](NC(=O)[C@H](Cc1ccccc1)NC(=O)[C@@H]1CC(=O)N[C@H](C(C)C)C(=O)N(C)[C@@H](C)C(=O)N(C)[C@@H](CC(C)C)C(=O)N[C@@H]([C@@H](C)O)C(=O)N(C)CC(=O)N(C)[C@@H](Cc2ccccc2)C(=O)N(C)[C@@H](CC(C)C)C(=O)N(C)[C@@H](Cc2cccc(Cl)c2)C(=O)N(C)[C@@H](CC(C)C)C(=O)N[C@@H](C)C(=O)N1)C(C)C)C(=O)N1CCCCC1 [DP-949] ([dV][NMeA][NMeL]T[Sar][NMeF][NMeL][NMePhe(3-Cl)][NMeL]ADFVI-Piperidide; lactam N-11) — recorded microsomal CLint at 1 uM = 37
